Target: Cytochrome P450 2C19 (Homo sapiens)
Sequence (P33261 whole entry): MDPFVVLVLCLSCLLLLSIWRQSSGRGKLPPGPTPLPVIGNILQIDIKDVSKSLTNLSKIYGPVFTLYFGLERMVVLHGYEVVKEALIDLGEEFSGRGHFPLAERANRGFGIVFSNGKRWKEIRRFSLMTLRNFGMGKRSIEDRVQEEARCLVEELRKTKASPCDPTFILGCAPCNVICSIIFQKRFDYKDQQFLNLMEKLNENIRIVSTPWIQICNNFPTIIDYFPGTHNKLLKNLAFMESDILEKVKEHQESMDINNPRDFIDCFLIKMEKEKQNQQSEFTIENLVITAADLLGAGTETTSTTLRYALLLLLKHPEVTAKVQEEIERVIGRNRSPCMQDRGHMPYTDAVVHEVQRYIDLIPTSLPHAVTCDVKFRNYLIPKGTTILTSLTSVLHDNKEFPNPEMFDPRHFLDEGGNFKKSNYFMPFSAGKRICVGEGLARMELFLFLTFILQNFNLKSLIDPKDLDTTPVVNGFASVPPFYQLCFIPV
Assay: Inhibition of human CYP2C19 using 3-butyryl-7-methoxycoumarin as substrate incubated for 30 mins prior to substrate addition measured up to 10 mins by fluorimetry
Type: ADME
pIC50: −log10 of the molar value.
value-kind: pIC50

// query Report pIC50 for COc1cc2c(cc1C(F)(F)F)N(C(=O)Nc1cc(OC(F)(F)F)cc(-c3cccnc3)c1)CC2 tested on Cytochrome P450 2C19 (Homo sapiens).
// result < 4.30

====

Assay: Equilibrium solubility of the compound in fed state simulated intestinal fluid after 24 hrs by LC-MS analysis at pH 5
Type: physicochemical
value-kind: solubility thermodynamic at 24 h (µg/mL)
Give bare numbers, in µg/mL.

// query Find the recorded solubility thermodynamic at 24 h belonging to COc1cc2c(cc1C(F)(F)F)N(C(=O)Nc1cc(OC(F)(F)F)cc(-c3cccnc3)c1)CC2 and report it.
// result 16.7

====

System: Plasmodium falciparum
Test: Antiplasmodial activity against Plasmodium falciparum HB3 assessed as inhibition of [3H]hypoxanthine incorporation incubated for 24 hrs prior to [3H]hypoxanthine addition measured after 24 hrs by beta scintillation counting
Type: functional, organism-based
value-kind: pIC50
Answers are plain numbers, as −log10 of the molar value.

// query Find the recorded pIC50 belonging to COc1cc2c(cc1C(F)(F)F)N(C(=O)Nc1cc(OC(F)(F)F)cc(-c3cccnc3)c1)CC2 and report it.
// result 7.05

====

Assay: Cytotoxicity against human HepG2 cells after 48 hrs by resazurin reduction assay
Type: cell-based
Settings: read-out: TC50
value-kind: CC50 at 48 h (µM)
Answers are plain numbers, in µM.

// query Find the recorded CC50 at 48 h belonging to COc1cc2c(cc1C(F)(F)F)N(C(=O)Nc1cc(OC(F)(F)F)cc(-c3cccnc3)c1)CC2 and report it.
// result 7

Hello, the source for this data is ChEMBL document CHEMBL2169755, in case you need it.
